System: 280 human cancer cell lines
TEST_NAME: OncoPanel cell proliferation assay (10-day)
Assay type: cell-based
CONDITION_SET: Homo sapiens, SNB-19, SNB-19, CNS - Glioma; read-out: Cell Count IC50
pIC50: −log10 of the molar value.
A collection of molecules and their measured pIC50

- MOLECULE: "CC(C)=CCC[C@H](C)[C@@H]1CC[C@@H](C)c2c1cc(C)c(O)c2O [Compound 4, 7,8-dihydroxyserrulat-14-ene]"
  pIC50: 4.89
- MOLECULE: "CC(C)=CCC[C@@H]1C(O)Oc2c(C)cc(O)c3c2[C@H]1CC[C@H]3C (stereo partly drawn)"
  pIC50: 4.76
- MOLECULE: "CC(C)=CCC[C@H](CO)[C@@H]1CC[C@@H](C)c2c1cc(C)c(O)c2O [Compound 1, 7,8,18-trihydroxyserrulat-14-ene]"
  pIC50: 5.78

----------
Entries and their % Cell growth values follow.
Test system: 43 cancer cell lines and one normal cell line
TEST_NAME: In vitro cell viability assay (intracellular ATP, 72 hour)
Format: cell-based
CONDITION_SET: KATO III (Stomach); 10 μM

- MOLECULE: "CC(C)=CCC[C@@H]1COc2c(C)cc(O)c3c2[C@H]1CC[C@H]3C [Compound 3, 5,18-epoxy-8-hydroxyserrulat-14-ene]"
  % Cell growth, %: 105
- MOLECULE: "CC(C)=CCC[C@H](C)[C@@H]1CC[C@@H](C)c2c1cc(C)c(O)c2O [Compound 4, 7,8-dihydroxyserrulat-14-ene]"
  % Cell growth, %: 83
- MOLECULE: "CC(C)=CCC[C@@H]1C(O)Oc2c(C)cc(O)c3c2[C@H]1CC[C@H]3C (stereo partly shown) [Compound 2, 5,18-epoxyserrulat-14-en-8,18-diol]"
  % Cell growth, %: 84
- MOLECULE: "CC(C)=CCC[C@H](CO)[C@@H]1CC[C@@H](C)c2c1cc(C)c(O)c2O [Compound 1, 7,8,18-trihydroxyserrulat-14-ene]"
  % Cell growth, %: "−91"

----------
Tested on: 280 human cancer cell lines
TEST_NAME: OncoPanel cell proliferation assay (10-day)
Format: cell-based
CONDITION_SET: Homo sapiens, MOLT-3, MOLT-3, Leukemia; read-out: Cell Count EC50
pEC50: −log10 of the molar value.
The reader will find reported pEC50 values listed item by item below.

- MOLECULE: "CC(C)=CCC[C@H](C)[C@@H]1CC[C@@H](C)c2c1cc(C)c(O)c2O [Compound 4, 7,8-dihydroxyserrulat-14-ene]"
  pEC50: 5.50
- MOLECULE: "CC(C)=CCC[C@@H]1C(O)Oc2c(C)cc(O)c3c2[C@H]1CC[C@H]3C (stereo partly drawn)"
  pEC50: 5.90
- MOLECULE: "CC(C)=CCC[C@H](CO)[C@@H]1CC[C@@H](C)c2c1cc(C)c(O)c2O [Compound 1, 7,8,18-trihydroxyserrulat-14-ene]"
  pEC50: 5.67

----------
TARGET_OR_SYSTEM: SUV39H2 (h) (Homo sapiens)
Sequence (Q9H5I1 whole entry): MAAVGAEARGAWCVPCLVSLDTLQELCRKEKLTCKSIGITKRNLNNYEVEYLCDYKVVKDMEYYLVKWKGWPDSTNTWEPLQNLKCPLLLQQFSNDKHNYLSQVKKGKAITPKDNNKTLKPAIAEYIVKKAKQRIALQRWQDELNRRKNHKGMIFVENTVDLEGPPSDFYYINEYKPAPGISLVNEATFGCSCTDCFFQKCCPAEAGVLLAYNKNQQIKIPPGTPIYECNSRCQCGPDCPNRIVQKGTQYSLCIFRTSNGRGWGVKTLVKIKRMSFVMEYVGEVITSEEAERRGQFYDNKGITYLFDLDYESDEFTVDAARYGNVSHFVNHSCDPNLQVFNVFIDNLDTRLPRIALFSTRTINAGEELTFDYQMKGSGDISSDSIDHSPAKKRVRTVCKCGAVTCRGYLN
TEST_NAME: Epigenetic enzyme assay, Methyltransferases (MTs)
Type: biochemical
CONDITION_SET: read-out: Reference IC50
pIC50: −log10 of the molar value.
QUANTITY_MEASURED: pIC50

- MOLECULE: "Nc1ncnc2c1ncn2[C@@H]1O[C@H](CSCC[C@H](N)C(=O)O)[C@@H](O)[C@H]1O [SAH]"
  REPORTED: 4.62
